target: DYRK1A (Homo sapiens); construct: The DNA encoding DYRK1A with a non-cleavable N-terminal MBP-tag was synthesized by Genscript; made in house; host or cells: E. coli BL21 (DE3) RIPL; experiment: DYRK1A kinase inhibition assay (ADP-Glo Kinase Assay, DYRKtide substrate); assay type: biochemical; settings: ADP-Glo; 100 μM ATP, 1 mg/mL DYRKtide, 30 nM DYRK1A, 1 h room temperature; read-out: IC50;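 note: DYRKtide phosphorylation read out by luminescence, reaction run in Tris buffer pH 7.5 with MgCl2 and BSA, containing 1% DMSO or methanol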
pIC50: −log10 of the molar value.
observed_property: pIC50

Recorded pIC50, per entry:
# compound, pIC50
records = [
    ("O=c1cc(-c2ccc(O)cc2)oc2cc(O)cc(O)c12", 5.99),
    ("O=c1c(O)c(-c2cc(O)c(O)c(O)c2)oc2cc(O)cc(O)c12", 6.20),
]

A = O=c1c(O)c(-c2ccc(O)cc2)oc2cc(O)cc(O)c12 [Kaempferol, 3,5,7,4′-tetrahydroxyflavone]
B = O=c1cc(-c2ccc(O)c(O)c2)oc2cc(O)cc(O)c12
C = O=c1c(O)c(-c2ccc(O)cc2O)oc2cc(O)cc(O)c12
D = COc1ccc(-c2oc3cc(O)cc(O)c3c(=O)c2O)cc1 [Kaempferide]
# sort list by recorded pIC50, greatest to least // respond by listing labels in the order requested
A, C, B, D

a = O=c1c(O)c(-c2ccc(O)c(O)c2)oc2cc(O)cc(O)c12 [Quercetin, reference compound]
b = O=c1c(O)c(-c2ccc(O)c(O)c2)oc2cc(O)ccc12
// compare measured pIC50 between a and b ; output the lower one I would appreciate it if you answered with the label of your choice.
a
(a: 6.13, b: 6.83)

Cited source: paper PMC12292390
